Cited source for all entries: ChEMBL document CHEMBL4000206

biological target: UniProtKB P00742; assay: Inhibition of factor 10a (unknown origin) using S-2765 as substrate assessed as compound potency preincubated with AT-3 followed by factor 10a addition for 60 secs and subsequent addition of substrate for 60 secs measured after 4 mins
readout_kind: INH

compound	reading
CC.COC1O[C@H](COS(=O)(=O)O)[C@@H](O[C@@H]2O[C@@H](C(=O)O)[C@@H](O[C@@H]3O[C@H](COS(=O)(=O)O)[C@@H](O[C@@H]4O[C@H](C(=O)O)[C@@H](O[C@H]5O[C@H](COS(=O)(=O)O)[C@@H](O)[C@H](O)[C@H]5NS(=O)(=O)O)[C@H](O)[C@H]4O)[C@H](OS(=O)(=O)O)[C@H]3NS(=O)(=O)O)[C@H](O)[C@H]2OS(=O)(=O)O)[C@H](O)[C@H]1NS(=O)(=O)O (single isomer, unassigned)	719 IU/mg

* * *

We begin with a simple list: items and their reported INH.
biological target: Coagulation factor X (Homo sapiens); experiment: Inhibition of factor 10a (unknown origin) using S-2765 as substrate assessed as compound potency preincubated with AT-3 followed by factor 10a addition for 60 secs and subsequent addition of substrate for 60 secs measured after 4 mins

molecule_smiles	target_desc	quantity_unit	INH
CO[C@H]1O[C@H](COS(=O)(=O)O)[C@@H](O[C@@H]2O[C@@H](C(=O)O)[C@@H](O[C@@H]3O[C@H](COS(=O)(=O)O)[C@@H](O[C@@H]4O[C@H](C(=O)O)[C@@H](O[C@H]5O[C@H](COS(=O)(=O)O)[C@@H](O)[C@H](O)[C@H]5NS(=O)(=O)O)[C@H](O)[C@H]4O)[C@H](OS(=O)(=O)O)[C@H]3NS(=O)(=O)O)[C@H](O)[C@H]2OS(=O)(=O)O)[C@H](O)[C@H]1NS(=O)(=O)O	Coagulation factor X (Homo sapiens)	IU/mg	1170
CO[C@H]1O[C@H](COS(=O)(=O)O)[C@@H](O[C@@H]2O[C@@H](C(=O)O)[C@@H](O[C@@H]3O[C@H](COS(=O)(=O)O)[C@@H](O[C@@H]4O[C@H](C(=O)O)[C@@H](O[C@H]5O[C@H](COS(=O)(=O)O)[C@@H](O)[C@H](O)[C@H]5NC=O)[C@H](O)[C@H]4O)[C@H](OS(=O)(=O)O)[C@H]3NS(=O)(=O)O)[C@H](O)[C@H]2OS(=O)(=O)O)[C@H](O)[C@H]1NS(=O)(=O)O	Coagulation factor X (Homo sapiens)	IU/mg	1260
CO[C@H]1O[C@H](COS(=O)(=O)O)[C@@H](O[C@@H]2O[C@@H](C(=O)O)[C@@H](O[C@@H]3O[C@H](COS(=O)(=O)O)[C@@H](O[C@@H]4O[C@H](C(=O)O)[C@@H](O[C@H]5O[C@H](COS(=O)(=O)O)[C@@H](O)[C@H](O)[C@H]5N)[C@H](O)[C@H]4O)[C@H](OS(=O)(=O)O)[C@H]3N)[C@H](O)[C@H]2OS(=O)(=O)O)[C@H](O)[C@H]1NS(=O)(=O)O	Coagulation factor X (Homo sapiens)	IU/mg	1.32
CO[C@H]1O[C@H](COS(=O)(=O)O)[C@@H](O[C@@H]2O[C@@H](C(=O)O)[C@@H](O[C@@H]3O[C@H](COS(=O)(=O)O)[C@@H](O[C@@H]4O[C@H](C(=O)O)[C@@H](O[C@H]5O[C@H](COS(=O)(=O)O)[C@@H](O)[C@H](O)[C@H]5NS(=O)(=O)O)[C@H](O)[C@H]4O)[C@H](OS(=O)(=O)O)[C@H]3NS(=O)(=O)O)[C@H](O)[C@H]2OS(=O)(=O)O)[C@H](O)[C@H]1N(C)S(=O)(=O)O	Coagulation factor X (Homo sapiens)	IU/mg	1140

* * *

target: Coagulation factor X (Homo sapiens, UniProt P00742); assay: Inhibition of factor 10a (unknown origin) using S-2765 as substrate assessed as compound potency preincubated with AT-3 followed by factor 10a addition for 60 secs and subsequent addition of substrate for 60 secs measured after 4 mins
Sequence (P00742 41-179 limits assumed): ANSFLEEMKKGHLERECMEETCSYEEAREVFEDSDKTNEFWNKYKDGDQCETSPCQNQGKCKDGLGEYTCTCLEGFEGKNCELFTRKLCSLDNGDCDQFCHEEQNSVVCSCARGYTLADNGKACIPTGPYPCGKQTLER
Sequence (P00742 235-488 limits assumed): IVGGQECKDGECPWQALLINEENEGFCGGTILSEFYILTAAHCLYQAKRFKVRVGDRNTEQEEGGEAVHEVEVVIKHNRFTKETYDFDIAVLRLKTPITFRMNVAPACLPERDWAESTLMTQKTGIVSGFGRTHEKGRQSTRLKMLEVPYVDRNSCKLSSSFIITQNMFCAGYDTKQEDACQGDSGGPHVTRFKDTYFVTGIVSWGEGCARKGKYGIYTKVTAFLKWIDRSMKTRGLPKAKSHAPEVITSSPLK
readout_kind: INH (IU/mg)

molecule_smiles	target_desc	reading
CO[C@H]1O[C@H](COS(=O)(=O)O)[C@@H](O[C@@H]2O[C@@H](C(=O)O)[C@@H](O[C@@H]3O[C@H](COS(=O)(=O)O)[C@@H](O[C@@H]4O[C@H](C(=O)O)[C@@H](O[C@H]5O[C@H](COS(=O)(=O)O)[C@@H](O)[C@H](O)[C@H]5NS(=O)(=O)O)[C@H](O)[C@H]4O)[C@H](OS(=O)(=O)O)[C@H]3N)[C@H](O)[C@H]2OS(=O)(=O)O)[C@H](O)[C@H]1NS(=O)(=O)O	Coagulation factor X (Homo sapiens, UniProt P00742)	2.15
CO[C@H]1O[C@H](COS(=O)(=O)O)[C@@H](O[C@@H]2O[C@H]3C(=O)N[C@H]4[C@H](O[C@@H]3[C@H](O)[C@H]2OS(=O)(=O)O)O[C@H](COS(=O)(=O)O)[C@@H](O[C@@H]2O[C@H](C(=O)O)[C@@H](O[C@H]3O[C@H](COS(=O)(=O)O)[C@@H](O)[C@H](O)[C@H]3NS(=O)(=O)O)[C@H](O)[C@H]2O)[C@@H]4OS(=O)(=O)O)[C@H](O)[C@H]1NS(=O)(=O)O	Coagulation factor X (Homo sapiens, UniProt P00742)	83.5
CO[C@H]1O[C@H](COS(=O)(=O)O)[C@@H](O[C@@H]2O[C@@H](C(=O)O)[C@@H](O[C@@H]3O[C@H](COS(=O)(=O)O)[C@@H](O[C@@H]4O[C@H](C(=O)O)[C@@H](O[C@H]5O[C@H](COS(=O)(=O)O)[C@@H](O)[C@H](O)[C@H]5NS(=O)(=O)O)[C@H](O)[C@H]4O)[C@H](OS(=O)(=O)O)[C@H]3NS(=O)(=O)O)[C@H](OS(=O)(=O)O)[C@H]2OS(=O)(=O)O)[C@H](O)[C@H]1NS(=O)(=O)O	Coagulation factor X (Homo sapiens, UniProt P00742)	185

* * *

Reported IC50 values, Coagulation factor X (Homo sapiens).
readout_kind: IC50 (nM)

molecule	readout_kind	reading
CO[C@H]1O[C@H](COS(=O)(=O)O)[C@@H](O[C@@H]2O[C@H]3C(=O)N[C@H]4[C@H](O[C@@H]3[C@H](O)[C@H]2OS(=O)(=O)O)O[C@H](COS(=O)(=O)O)[C@@H](O[C@@H]2O[C@H](C(=O)O)[C@@H](O[C@H]3O[C@H](COS(=O)(=O)O)[C@@H](O)[C@H](O)[C@H]3NS(=O)(=O)O)[C@H](O)[C@H]2O)[C@@H]4OS(=O)(=O)O)[C@H](O)[C@H]1NS(=O)(=O)O	IC50	19.9
CC.O=C(O)[C@H]1O[C@@H](O[C@H]2[C@H](OS(=O)(=O)O)[C@@H](NS(=O)(=O)O)[C@H](O[C@H]3[C@H](O)[C@@H](OS(=O)(=O)O)[C@H](O[C@@H]4[C@H](O)[C@@H](CO)O[C@@H]4CS(=O)(=O)O)O[C@H]3C(=O)O)O[C@@H]2COS(=O)(=O)O)[C@H](O)[C@@H](O)[C@@H]1O[C@H]1O[C@H](COS(=O)(=O)O)[C@@H](O)[C@H](O)[C@H]1NS(=O)(=O)O	IC50	20.7
CO[C@H]1O[C@H](COS(=O)(=O)O)[C@@H](O[C@@H]2O[C@@H](C(=O)O)[C@@H](O[C@@H]3O[C@H](COS(=O)(=O)O)[C@@H](O[C@@H]4O[C@H](C(=O)O)[C@@H](O[C@H]5O[C@H](COS(=O)(=O)O)[C@@H](O)[C@H](O)[C@H]5NS(=O)(=O)O)[C@H](O)[C@H]4O)[C@H](OS(=O)(=O)O)[C@H]3NS(=O)(=O)O)[C@H](O)[C@H]2OS(=O)(=O)O)[C@H](O)[C@H]1N(C)S(=O)(=O)O	IC50	1.65
CC.COC1O[C@H](COS(=O)(=O)O)[C@@H](O[C@@H]2O[C@@H](C(=O)O)[C@@H](O[C@@H]3O[C@H](COS(=O)(=O)O)[C@@H](O[C@@H]4O[C@H](C(=O)O)[C@@H](O[C@H]5O[C@H](COS(=O)(=O)O)[C@@H](O)[C@H](O)[C@H]5NS(=O)(=O)O)[C@H](O)[C@H]4O)[C@H](OS(=O)(=O)O)[C@H]3NS(=O)(=O)O)[C@H](O)[C@H]2OS(=O)(=O)O)[C@H](O)[C@H]1NS(=O)(=O)O (single isomer, unassigned)	IC50	3
